System: primary Mantle Cell Lymphoma cells
Test: Apoptosis (annexin V flow cytometry) in primary MCL cells
Type: cell-based
Setup Conditions: Homo sapiens, 24 h, 8 patients, 24 h of treatment; read-out: EC50 apoptosis in primary MCL cells, range over patients
Procedure: Peripheral blood samples from CLL patients were obtained with informed patient consent and local ethical committee approval (UHL-09723). […] Interphase fluorescence in situ hybridization (FISH) was performed for detection of 17p13 deletion. […] EC50 values were calculated using GraphPadPrism (non-linear fit, sigmoidal dose response, variable slope). […] Cell death was assessed in the CD19+ primary MCL cells by annexinV-FITC staining combined with an analysis of altered cellular morphology (lower FCS). […]
Value Kind: EC50

query: Entry O=C(c1cc(-c2cc3c(cc2C(=O)N2Cc4ccccc4C[C@H]2CN2CCOCC2)OCO3)n2c1CCCC2)N(c1ccccc1)c1ccc(O)cc1 [S55746] has what EC50?
result: 2.5 to 110 nM

----------
System: control RS4;11 cells (shRNA CT)
Test: Viability of RS4;11 cells transduced with shRNA CT (control)
Assay type: cell-based
Setup Conditions: Homo sapiens, 72 h
Value Kind: IC50 (µM)
Write the answer as a number in µM, unit excluded.

query: Can you share its IC50? I mean this compound: O=C(c1cc(-c2cc3c(cc2C(=O)N2Cc4ccccc4C[C@H]2CN2CCOCC2)OCO3)n2c1CCCC2)N(c1ccccc1)c1ccc(O)cc1
result: 0.057

----------
Tested on: Burkitt lymphoma cell lines
Test: CellTiter-Glo viability, Burkitt lymphoma cell line panel
Format: cell-based
Setup Conditions: 72 h; all Burkitt lymphoma cell lines tested
Value Kind: IC50

query: What measured IC50 is associated with O=C(c1cc(-c2cc3c(cc2C(=O)N2Cc4ccccc4C[C@H]2CN2CCOCC2)OCO3)n2c1CCCC2)N(c1ccccc1)c1ccc(O)cc1 on Burkitt lymphoma cell lines?
result: > 10 µM

----------
Test system: primary Chronic Lymphocytic Leukemia cells
Test: Apoptosis (annexin V/PI flow cytometry) in primary CLL cells
Assay type: cell-based
Setup Conditions: Homo sapiens, CLL cell, 4 h, read-out: EC50 S55746 primary CLL cells, patient CLL4, p17 del No, 4 h
Value Kind: pEC50
Field pEC50 (float): negative decimal logarithm of the concentration in molar.

query: // returns reported pEC50 for input O=C(c1cc(-c2cc3c(cc2C(=O)N2Cc4ccccc4C[C@H]2CN2CCOCC2)OCO3)n2c1CCCC2)N(c1ccccc1)c1ccc(O)cc1 [S55746]
result: 7.92

----------
Tested on: primary Mantle Cell Lymphoma cells
Test: Apoptosis (annexin V flow cytometry) in primary MCL cells
Assay type: cell-based
Setup Conditions: Homo sapiens, 24 h, read-out: EC50 S55746 primary MCL cells, patient MCL6, 24 h
Value Kind: pEC50
Entry type: numeric. Quantity: pEC50, the -log10 of concentration in molar units.

query: # get_value(readout='pEC50', item= O=C(c1cc(-c2cc3c(cc2C(=O)N2Cc4ccccc4C[C@H]2CN2CCOCC2)OCO3)n2c1CCCC2)N(c1ccccc1)c1ccc(O)cc1 [S55746] )
result: 8.40

----------
Tested on: isolated platelets from healthy volunteers
Test: Apoptosis (annexin V) in isolated platelets
Type: cell-based
Setup Conditions: Homo sapiens, Platelet; 4 healthy donors, 3 h; read-out: EC50 apoptosis (PS+) in isolated platelets
Value Kind: EC50 (nM)
Write the answer as a number in nM, unit excluded.

query: Quick check: EC50 of CN(C)CC[C@H](CSc1ccccc1)Nc1ccc(S(=O)(=O)NC(=O)c2ccc(N3CCN(Cc4ccccc4-c4ccc(Cl)cc4)CC3)cc2)cc1[N+](=O)[O-] [ABT-737, reference compound] ?
result: 30
